EXPERIMENTAL_TARGET: Integrin alpha-4/beta-1 (Homo sapiens, UniProt P05556+P13612)
Sequence (P05556 whole entry): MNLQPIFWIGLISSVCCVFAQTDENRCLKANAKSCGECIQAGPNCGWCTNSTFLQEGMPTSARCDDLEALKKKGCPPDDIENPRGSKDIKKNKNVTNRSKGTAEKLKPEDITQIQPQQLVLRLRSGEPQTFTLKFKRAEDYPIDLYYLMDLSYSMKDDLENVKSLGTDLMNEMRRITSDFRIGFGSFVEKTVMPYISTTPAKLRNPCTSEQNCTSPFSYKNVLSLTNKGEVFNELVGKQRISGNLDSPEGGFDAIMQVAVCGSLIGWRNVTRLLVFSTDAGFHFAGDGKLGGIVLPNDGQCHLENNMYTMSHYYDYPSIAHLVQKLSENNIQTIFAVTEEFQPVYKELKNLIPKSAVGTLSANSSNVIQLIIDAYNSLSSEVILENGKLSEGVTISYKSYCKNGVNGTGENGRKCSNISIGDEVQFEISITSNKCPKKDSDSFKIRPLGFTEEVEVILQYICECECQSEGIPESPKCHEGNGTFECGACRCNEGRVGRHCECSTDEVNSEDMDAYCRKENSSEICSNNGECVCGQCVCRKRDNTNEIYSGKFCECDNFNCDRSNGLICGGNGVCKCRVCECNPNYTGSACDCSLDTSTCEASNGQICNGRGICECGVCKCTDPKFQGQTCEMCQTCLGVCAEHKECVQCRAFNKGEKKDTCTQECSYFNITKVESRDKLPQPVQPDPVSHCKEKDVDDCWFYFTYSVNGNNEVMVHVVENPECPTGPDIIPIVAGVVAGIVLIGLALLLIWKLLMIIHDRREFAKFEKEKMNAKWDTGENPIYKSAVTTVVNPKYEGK
Sequence (P13612 whole entry): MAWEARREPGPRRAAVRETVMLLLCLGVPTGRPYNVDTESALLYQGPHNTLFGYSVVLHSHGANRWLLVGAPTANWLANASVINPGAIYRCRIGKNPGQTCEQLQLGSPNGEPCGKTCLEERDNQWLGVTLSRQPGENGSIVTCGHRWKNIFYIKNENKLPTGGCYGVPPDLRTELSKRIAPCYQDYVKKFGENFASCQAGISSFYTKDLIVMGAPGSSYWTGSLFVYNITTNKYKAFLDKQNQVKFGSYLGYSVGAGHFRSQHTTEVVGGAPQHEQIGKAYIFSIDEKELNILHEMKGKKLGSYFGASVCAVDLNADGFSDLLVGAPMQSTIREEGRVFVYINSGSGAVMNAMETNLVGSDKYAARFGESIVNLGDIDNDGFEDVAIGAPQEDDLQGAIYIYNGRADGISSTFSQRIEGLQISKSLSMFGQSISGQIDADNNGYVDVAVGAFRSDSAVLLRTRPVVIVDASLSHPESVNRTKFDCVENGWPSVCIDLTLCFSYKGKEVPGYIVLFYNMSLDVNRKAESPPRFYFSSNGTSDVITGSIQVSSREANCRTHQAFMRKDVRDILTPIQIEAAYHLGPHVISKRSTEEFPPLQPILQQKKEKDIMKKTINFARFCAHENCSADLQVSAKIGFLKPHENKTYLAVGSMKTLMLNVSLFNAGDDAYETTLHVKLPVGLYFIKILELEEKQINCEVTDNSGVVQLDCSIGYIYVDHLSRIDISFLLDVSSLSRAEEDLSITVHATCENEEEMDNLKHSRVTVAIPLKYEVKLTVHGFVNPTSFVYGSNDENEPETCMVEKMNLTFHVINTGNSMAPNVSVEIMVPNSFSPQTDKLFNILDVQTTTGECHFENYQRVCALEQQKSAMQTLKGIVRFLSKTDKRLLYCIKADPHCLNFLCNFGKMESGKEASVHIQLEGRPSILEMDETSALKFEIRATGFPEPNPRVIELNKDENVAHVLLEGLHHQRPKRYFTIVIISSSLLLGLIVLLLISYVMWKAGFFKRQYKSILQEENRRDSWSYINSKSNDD
MEASUREMENT_PROTOCOL: Inhibitory concentration affording 50% inhibition of alpha4-beta1 integrin binding to VCAM-1, using ELISA assay.
Peptide text beside a SMILES is read from it.
# Lookup of reported IC50 keyed by entry
Respond with the bare value in µM.

{"COMPOUND": "CC(C)C[C@@H]1NC(=O)[C@H]([C@@H](C)O)NC(=O)[C@H](CC(=O)O)NC(=O)[C@H](CO)NC(=O)[C@H](Cc2cnc[nH]2)NC(=O)[C@@H](N)CSSC[C@@H](C(N)=O)NC1=O", "IC50 (µM)": 1.1}
{"COMPOUND": "CC(C)C[C@@H]1NC(=O)[C@H]([C@@H](C)O)NC(=O)[C@H](CC(N)=O)NC(=O)[C@H](CO)NC(=O)[C@H](CCCNC(=N)N)NC(=O)[C@@H](N)CSSC[C@@H](C(=O)O)NC1=O", "IC50 (µM)": 2.2}
{"COMPOUND": "CC(C)C[C@@H]1NC(=O)[C@H]([C@@H](C)O)NC(=O)[C@H](CC(=O)O)NC(=O)[C@H](CO)NC(=O)[C@H](CCCN=C(N)N)NC(=O)[C@@H](N)CSSC[C@@H](C(=O)NCC(=O)N[C@@H](CCC(=O)O)C(N)=O)NC1=O (HELM PEPTIDE1{C.R.S.D.T.L.C.G.E.[am]}$PEPTIDE1,PEPTIDE1,1:R3-7:R3$$$V2.0)", "IC50 (µM)": 1.1}
{"COMPOUND": "CC(C)C[C@@H]1NC(=O)[C@H]([C@@H](C)O)NC(=O)[C@H](CC(=O)O)NC(=O)[C@H](CO)NC(=O)[C@H](Cc2ccc(O)cc2)NC(=O)[C@@H](N)CSSC[C@@H](C(N)=O)NC1=O", "IC50 (µM)": 0.009}
{"COMPOUND": "CC[C@H](C)[C@@H]1NC(=O)[C@H]([C@@H](C)O)NC(=O)[C@H](CC(=O)O)NC(=O)[C@H](CO)NC(=O)[C@H](CCCNC(=N)N)NC(=O)[C@@H](N)CSSC[C@@H](C(N)=O)NC1=O", "IC50 (µM)": 25}
{"COMPOUND": "CC[C@H](C)[C@@H]1NC(=O)[C@H](CCCN=C(N)N)NC(=O)[C@@H](N)CSSC[C@@H](C(N)=O)NC(=O)[C@H](CC(C)C)NC(=O)[C@H]([C@@H](C)O)NC(=O)[C@H](CC(=O)O)NC1=O", "IC50 (µM)": 1.2}
{"COMPOUND": "CC(C)C[C@@H]1NC(=O)[C@H]([C@@H](C)O)NC(=O)[C@H](CC(=O)O)NC(=O)[C@H](CO)NC(=O)[C@H](CCCNC(=N)N)NC(=O)[C@@H](N)CSSC[C@@H](C(N)=O)NC1=O", "IC50 (µM)": 4.2}

Record request: IC50 value, item CC(C)C[C@@H]1NC(=O)[C@H](C(C)C)NC(=O)[C@H](CC(=O)O)NC(=O)[C@H](CO)NC(=O)[C@H](CCCN=C(N)N)NC(=O)[C@@H](N)CSSC[C@@H](C(N)=O)NC1=O
13

----------
EXPERIMENTAL_TARGET: Integrin alpha-4/beta-1 (Homo sapiens, UniProt P05556+P13612)
MEASUREMENT_PROTOCOL: Inhibitory concentration affording 50% inhibition of alpha4-beta1 integrin binding to VCAM-1, using ELISA assay.
PROPERTY_MEASURED: IC50 (µM)
Kindly provide the numeric value in µM only, without the unit symbol.

{"SAMPLE_SMILES": "CC(C)C[C@@H]1NC(=O)[C@H]([C@@H](C)O)NC(=O)[C@H](CC(=O)O)NC(=O)[C@H](CO)NC(=O)[C@H](CCCCN)NC(=O)[C@@H](N)CSSC[C@@H](C(N)=O)NC1=O", "PROPERTY_MEASURED": "IC50", "RECORDED_RESULT": 1.5}
{"SAMPLE_SMILES": "CC(C)C[C@@H]1NC(=O)[C@H]([C@@H](C)O)NC(=O)[C@H](CC(=O)O)NC(=O)[C@H]([C@@H](C)O)NC(=O)[C@H](CCCN=C(N)N)NC(=O)[C@@H](N)CSSC[C@@H](C(N)=O)NC1=O", "PROPERTY_MEASURED": "IC50", "RECORDED_RESULT": 7.4}

Sample CC(C)C[C@@H]1NC(=O)[C@H]([C@@H](C)O)NC(=O)[C@H](CC(N)=O)NC(=O)[C@H](CO)NC(=O)[C@H](CCCNC(=N)N)NC(=O)[C@@H](N)CSSC[C@@H](C(N)=O)NC1=O — what was its IC50?
88

I am curious: what IC50 value has been reported for CC(C)C[C@@H]1NC(=O)[C@H]([C@@H](C)O)NC(=O)[C@H](CC(=O)O)NC(=O)[C@H](CO)NC(=O)[C@H](CCCNC(=N)N)NC(=O)[C@@H](N)CSSC[C@@H](C(=O)O)NC1=O ?
0.4

Values from ChEMBL document CHEMBL1135530
